Biological target: 5-HT2A receptors (Rattus norvegicus)
Sequence (P14842 whole entry): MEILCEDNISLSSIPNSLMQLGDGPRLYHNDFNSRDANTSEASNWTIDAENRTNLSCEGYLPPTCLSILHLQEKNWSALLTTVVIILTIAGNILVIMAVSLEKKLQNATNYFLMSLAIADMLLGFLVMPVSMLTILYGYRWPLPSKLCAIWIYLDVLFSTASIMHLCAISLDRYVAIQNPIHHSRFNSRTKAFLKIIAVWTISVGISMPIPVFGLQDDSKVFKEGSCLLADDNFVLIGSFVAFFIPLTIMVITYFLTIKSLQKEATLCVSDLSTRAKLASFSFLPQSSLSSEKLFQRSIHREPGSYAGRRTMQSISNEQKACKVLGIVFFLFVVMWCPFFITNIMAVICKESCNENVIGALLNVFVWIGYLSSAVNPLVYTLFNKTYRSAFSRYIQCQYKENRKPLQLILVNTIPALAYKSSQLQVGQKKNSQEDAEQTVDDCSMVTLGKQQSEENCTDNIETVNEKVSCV
Assay: in-vitro affinity to 5-HT2A receptors, displacement of [3H]ketanserine (Example A1)
Assay type: binding
Details: target not given; description names affinity to 5-HT2A receptors; read-out: IC50
Reported values of log10 IC50 for individual entries
Log10 applied to IC50; unit prior to transform: nM.

// lookup log10 IC50 for CN1CCN(Cc2cnn(-c3ccc(-c4ccccc4)nc3)c2-c2cccnc2)CC1 [(198)]
2.15

// query log10 IC50 value for entry Nc1ncc(NCc2cnn(-c3ccc(-c4ccc(F)cc4)nc3)c2-c2ccccc2F)cn1 [(197)]
3.11

State the recorded log10 IC50 for this entry: Fc1ccccc1-c1c(CN2CC=CC2)cnn1-c1ccc(-c2ccccc2)cc1 [(30)]
1.56

I have this molecule here, CN1CCN(Cc2cnn(-c3ccc(-c4ccccc4F)cc3)c2-c2ccccc2)CC1 [(96)] , and I need its recorded log10 IC50.
2.91

Can you share its log10 IC50? I mean this molecule: CN1CCN(NCc2cnn(-c3ccc(-c4ccccc4)cc3)c2-c2ccccc2F)CC1 [(40)]
1.15

Reported log10 IC50 for CN1CCN(Cc2cnn(-c3ccc(-c4ccc(F)cc4)cc3)c2-c2ccccc2)CC1 [(97)] : what is it?
1.11

Give the measured log10 IC50 of CCN(CC)CC1CCCCN1Cc1cnn(-c2ccc(-c3ccccc3)cc2)c1-c1ccccc1F (centres unmarked) [(51)] .
2.43

Query: log10 IC50; subject: O=C(Nc1ccccc1)N1CCN(Cc2cnn(-c3ccc(-c4ccccc4)cc3)c2-c2ccccc2F)CC1 [(126)]
2.90

# lookup: log10 IC50 of COC(=O)CCNCc1cnn(-c2ccc(-c3ccccc3)cc2)c1-c1ccccc1F [(112)]
2.32

Any idea what its log10 IC50 is? The molecule is Nc1ccncc1NCc1cnn(-c2ccc(-c3ccccc3)cc2)c1-c1ccccc1F [(177)]
2.26

What does the data say about its log10 IC50? Entry: Fc1ccc(-c2ccc(-n3ncc(CN4CCOCC4)c3-c3ccccc3F)cc2)cc1 [(61)]
2.72

Can you share its log10 IC50? I mean this molecule: CS(=O)(=O)N1CCN(Cc2cnn(-c3ccc(-c4ccccc4)cc3)c2-c2ccccc2F)CC1 [(123)]
2.92

Need log10 IC50 of Cc1cnc(NCc2cnn(-c3ccc(-c4ccccc4)cc3)c2-c2ccccc2F)s1 [(178)] , thanks.
2.57

log10 IC50 for CN1CCN(Cc2cnn(-c3ccc(-c4ccncc4)cc3)c2-c2ccccc2F)CC1 [(121)] ?
1.89

----------
Molecular target: 5 HT2C receptor (Homo sapiens)
Sequence (P28335 33-458): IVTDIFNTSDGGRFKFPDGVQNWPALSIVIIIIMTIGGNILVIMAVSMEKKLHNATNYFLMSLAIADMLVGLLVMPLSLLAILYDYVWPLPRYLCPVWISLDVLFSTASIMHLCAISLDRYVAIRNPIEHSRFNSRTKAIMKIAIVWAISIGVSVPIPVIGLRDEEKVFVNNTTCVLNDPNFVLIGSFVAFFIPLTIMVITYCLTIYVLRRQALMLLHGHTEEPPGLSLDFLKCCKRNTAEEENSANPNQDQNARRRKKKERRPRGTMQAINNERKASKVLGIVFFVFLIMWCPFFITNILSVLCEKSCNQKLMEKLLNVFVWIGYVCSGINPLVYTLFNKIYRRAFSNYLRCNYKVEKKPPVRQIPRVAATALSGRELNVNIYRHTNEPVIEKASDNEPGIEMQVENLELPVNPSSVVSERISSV
Experimental endpoint: log10 of IC50 (log10 of the value in µM)
# log10 transformed; quantity=IC50; unit=µM

COCCNCc1cnn(-c2ccc(-c3ccccc3)cc2)c1-c1ccccc1F [Example 905]    0.00
CN1CCN(Cc2cnn(-c3ccc(-c4ccccc4F)cc3)c2-c2ccc(F)cc2)CC1 [Example 1013]    0.00
COc1cccc(-c2ccc(-n3ncc(CN4CCN(C)CC4)c3-c3ccccc3F)cc2)c1 [Example 930]    -0.16

# log10 of IC50 lookup, item CN1CCN(Cc2cnn(-c3ccc(-c4ccc(F)cc4)cc3)c2-c2ccccc2Cl)CC1 [Example 965]
-0.22

# log10 of IC50 lookup, item c1ccc(-c2ccc(-n3ncc(CNCc4ccncc4)c3-c3ccccc3)cc2)cc1 [Example 932]
0.00

May I ask what log10 of IC50 has been recorded for CN1CCN(Cc2cnn(-c3ccc(-c4cc(F)ccc4F)cc3)c2-c2ccccc2)CC1 [Example 981] ?
0.00
